B1: glmS ribozyme (parent)
chain: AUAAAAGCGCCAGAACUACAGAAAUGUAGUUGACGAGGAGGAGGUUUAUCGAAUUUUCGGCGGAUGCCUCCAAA

Variants of: B1
Assay: self-cleavage kobs at 10000 uM GlcN6P; higher = faster cleavage; RNA array
Conditions: with glucosamine-6-phosphate
Variants at the floor of the assay were thinned out.
Reported metric: self-cleavage kobs at 10000 uM GlcN6P (s⁻¹)
Give a bare numeral; the unit s⁻¹ is implied.

Below, each entry is followed by its recorded self-cleavage kobs at 10000 uM GlcN6P result.
primary_sequence="AUAAAAGCGCCAGAACUACAGAAAUGUAGUUGACGAAGAGGAGGUUUAUCGAUUUUUCGGCGGAUGCCUCUAAA [G37A A53U C71U]" output_unit=s⁻¹ observed_measurement=0.00165
primary_sequence="AUAAAAGCGCAAGAGCUACAGAAAUGUAGUUGACGAGGAGGAGGUUUAUCGAAUUUUCGGCGGAUGCCUCCAAA [C11A A15G]" output_unit=s⁻¹ observed_measurement=0.000251
primary_sequence="AUAAAAGCGCCAGAACUACAGAAAUGUAGUUGACGAGGAGGAGGAUUAUCGAGUUUUCGGCGGAUGCCUCCAAA [U45A A53G]" output_unit=s⁻¹ observed_measurement=0.0473
primary_sequence="AUAAAAGCGCCAGAACUACAGAAAUGUAGUUGACGAGGAGGAGGUUUAUCGAAUUUUCGGCGGAUCCCUCAAAA [G66C C71A]" output_unit=s⁻¹ observed_measurement=0.000132
primary_sequence="AUAAAAGCGCCAGAACUACAGAAAUGUAGCUGACGAGGAGGAGGUUUAUCGAAUUUUCGGCGGAUACCUCCAAA [U30C G66A]" output_unit=s⁻¹ observed_measurement=0.00014
primary_sequence="AUAAAAGCGCCAGAACUACAGAAAUGUAGUUGACGAGGAGGGGGUUUAUCGAUUUUUCGGCGGAUGCCUCCAAA [A42G A53U]" output_unit=s⁻¹ observed_measurement=0.0373

Q: // query self-cleavage kobs at 10000 uM GlcN6P value for entry AUAAAAGCGCCAGAGCUACAGAAAUGUAGUUGACGAGGAGGAUGUUUAUCGAAUUUUCGGCGGAUGCCUCCAAA [A15G G43U]
A: 4e-05

Q: // query self-cleavage kobs at 10000 uM GlcN6P value for entry AUAAAAGCGCCAGAACUACAGAAAUGUAGUUGACGAGGUGGAGGUUUAGCGAAUUUUCGGCGGAUGCCUCCAAA [A39U U49G]
A: 0.000461

Q: // query self-cleavage kobs at 10000 uM GlcN6P value for entry AUAAAGGCGCCAGAAUUACAGAAAUGUACUUGACGAGGAGGAGGUUUAUCGAAUUUUCGGCGGAUGCCUCCAAA [A6G C16U G29C]
A: 6.83e-05

Q: // query self-cleavage kobs at 10000 uM GlcN6P value for entry AUAAAAGCGACAGAACUACAGAAAUGUAGUUGACGAGGAGGAGGUUUAUCGAAUUUUCGGCGGAUGCCGCCAAA [C10A U69G]
A: 3.29e-05

Q: // query self-cleavage kobs at 10000 uM GlcN6P value for entry AUAAAAGCGCCAGAACUACAGAAAUGUAAUUGACGAGGAGGAGGUUUUUCGAAAUUUCGGCGGAUGCCUCCAAA [G29A A48U U54A]
A: 3.57e-05

Q: // query self-cleavage kobs at 10000 uM GlcN6P value for entry AUAAAAGCGCCAGAACUACAGAAAUGUAGUUGACGAGGAGGAGGUUUAUCGGAUGUUCGGCGGAUGCCUCCAAA [A52G U55G]
A: 0.00124

Q: // query self-cleavage kobs at 10000 uM GlcN6P value for entry AUAAAAGCGCCUGAUCUACAGAAAUGUAAUUGACGAGGAGGAGGUUUAUCGAAUUUUCGGCGGAUGCCUCCAAA [A12U A15U G29A]
A: 0.00126

Q: // query self-cleavage kobs at 10000 uM GlcN6P value for entry AUAAAAGCGCCAGAACUACAGAAAUGUAGUUGACGAGGAGGGGGUUUAUCGAAUUUUGGGCGGAUGCCCCCAAA [A42G C58G U69C]
A: 0.000133

Q: // query self-cleavage kobs at 10000 uM GlcN6P value for entry AUAAAAGCGCCAGAACUACAGAAAUGUAGUUGACGACGAGGAGGUUUAUCGAUUUUUCGGCGGAUGCCUCCAAA [G37C A53U]
A: 1.92e-05
